# Ki per entry for rat histamine H3 receptors (Rattus norvegicus, UniProt Q9QYN8)
Note: unit nM is implicit; provide only the numeric part.

Solved cases (3 shown):
{"columns": ["compound", "study_system", "Ki [nM]"],
 "data": [
  ["CC1CCCC(C)N1C[C@H]1C[C@H](c2ccc(CN3CCCC3)cc2)C1 (stereo partly shown)", "rat histamine H3 receptors (Rattus norvegicus, UniProt Q9QYN8)", 2.81],
  ["Cc1cc(C(=O)Nc2ccccc2)nc(OC[C@H]2C[C@@H](c3ccc(CN4CCCC4)cc3)C2)n1", "rat histamine H3 receptors (Rattus norvegicus, UniProt Q9QYN8)", 68.8],
  ["Fc1cc(F)cc(COCC2CC(c3ccc(CN4CCCC4)cc3)C2)c1 (stereo not shown)", "rat histamine H3 receptors (Rattus norvegicus, UniProt Q9QYN8)", 79.4]
]}

Read the next record carefully.
Query block: Quick one: Ki for CC1CCCN(C[C@H]2C[C@H](c3ccc(CN4CCCC4)cc3)C2)C1 (relative stereo) ?
Result block: 0.65
